Biological target: human CCR1 (Homo sapiens)
Sequence (P32246 1-355): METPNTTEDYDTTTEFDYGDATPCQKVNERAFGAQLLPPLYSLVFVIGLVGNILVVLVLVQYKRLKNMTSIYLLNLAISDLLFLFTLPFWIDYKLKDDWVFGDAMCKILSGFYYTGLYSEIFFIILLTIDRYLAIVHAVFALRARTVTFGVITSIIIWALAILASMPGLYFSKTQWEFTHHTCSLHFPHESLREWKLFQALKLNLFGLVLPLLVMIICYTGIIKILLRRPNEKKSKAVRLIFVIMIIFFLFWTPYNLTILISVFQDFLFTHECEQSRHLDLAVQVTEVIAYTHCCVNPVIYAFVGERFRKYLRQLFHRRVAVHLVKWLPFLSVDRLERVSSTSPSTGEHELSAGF
pIC50: −log10 of the molar value.
Give measured pIC50 for each item. Keep answers brief.

Check out these entries, answers already filled in.
> print(dat)
                                   compound  measurementtype   measurement
1  Cc1cc(C(F)(F)F)ccc1NC(=O)N1CCC[C@@H]1c1nnc(C)n1Cc1ccc(Cl)cc1 [Compound 190]            pIC50        > 7.30
2  Cc1c(NC(=O)N2CCC[C@@H]2c2nnc(C)n2Cc2ccc(Cl)cc2)cccc1C(=O)N(C)C [Compound 238]            pIC50  6.30 to 7.30

Name the recorded pIC50 of the item O=C(N[C@H]1CCOc2cc(C(F)(F)F)ccc21)N1CCC[C@@H]1c1nncn1Cc1ccc(Cl)cc1 [Compound 107] in your answer.
> 7.30

----------
Measurement record for human CCR1 (Homo sapiens); quantity recorded: IC50.

Provide the reported IC50 of each entry below, same order.
1. Cc1noc(-c2ccccc2)c1NC(=O)N1CCC[C@@H]1c1nccn1Cc1ccc(Cl)cc1 [Compound 34]
2. O=C(N[C@H]1CCS(=O)(=O)c2ccc(Cl)cc21)N1CCC[C@@H]1c1nnc(CO)n1Cc1ccc(Cl)cc1 [Compound 371]
3. CNCc1nnc([C@H]2CCCN2C(=O)N[C@H]2CCOc3cc(C(F)(F)F)ccc32)n1Cc1ccc(Cl)cc1 [Compound 413]
4. N#C/N=C(\N[C@H]1CCOc2cc(C(F)(F)F)ccc21)N1CCC[C@@H]1c1nnc(CO)n1Cc1ccc(Cl)cc1 [Compound 373]
5. CC1(C)CC(NC(=O)N2CCC[C@@H]2c2nnnn2Cc2ccc(Cl)cc2)c2ccccc2O1 (stereo partly shown) [Compound 49]

< 50 nM
50 to 500 nM
50 to 500 nM
50 to 500 nM
50 to 500 nM

For each entry beneath this line, provide reported IC50.
1. Cc1nnc([C@H]2CCCN2C(=O)NC(C)c2cccnc2)n1Cc1ccc(Cl)cc1 (stereo partly shown) [Compound 139]
2. Cc1nnc([C@H]2CCCN2C(=O)Nc2ccc(Cl)cc2)n1Cc1ccc(Cl)cc1 [Compound 160]

1: 50 to 500 nM; 2: 50 to 500 nM

----------
What IC50 was measured for each of the following?
Protein target, amino acids: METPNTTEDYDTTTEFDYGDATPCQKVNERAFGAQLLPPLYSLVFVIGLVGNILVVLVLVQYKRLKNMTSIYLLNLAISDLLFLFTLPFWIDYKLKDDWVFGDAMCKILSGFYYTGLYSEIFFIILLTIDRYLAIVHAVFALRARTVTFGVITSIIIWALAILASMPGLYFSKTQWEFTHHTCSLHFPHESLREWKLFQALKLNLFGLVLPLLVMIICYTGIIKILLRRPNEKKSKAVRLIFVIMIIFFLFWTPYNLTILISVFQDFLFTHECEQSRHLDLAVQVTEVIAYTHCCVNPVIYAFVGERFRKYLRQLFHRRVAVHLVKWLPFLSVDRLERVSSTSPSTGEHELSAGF

// below: answered compounds
> print(dat)
                                   compound  measurementtype   measurement
1  Cc1nnc([C@H]2CCCN2C(=O)Nc2ccc(Cl)c(Cl)c2)n1Cc1ccc(Cl)cc1             IC50  50 to 500 nM
2  Cc1nc(C(F)(F)F)ccc1NC(=O)N1CC(C)(O)C[C@@H]1c1nnc(C)n1Cc1ccc(Cl)cc1 (some centres unmarked)             IC50  50 to 500 nM
3  Cc1onc(-c2ccccc2)c1NC(=O)N1CCC[C@@H]1c1nncn1Cc1ccc(Cl)cc1             IC50       < 50 nM
4  Cc1nnc([C@H]2CCCN2C(=S)Nc2ccc(Cl)cc2F)n1Cc1ccc(Cl)cc1             IC50       < 50 nM
5  Cc1nnc(C2C3CC3CN2C(=O)NC(c2ccccc2)c2ccccc2)n1Cc1ccc(Cl)cc1 (centres unmarked)             IC50  50 to 500 nM

Okay, here is my list. What is IC50 for each of these?
1. Cc1nnc([C@H]2C[C@H](O)CN2C(=O)NC2CCOc3cc(C#N)ccc32)n1Cc1ccc(Cl)cc1 (some centres unmarked)
2. Cc1nnc([C@H]2CCCN2C(=O)NC2CCCc3cccc(Cl)c32)n1Cc1ccc(Cl)cc1 (some centres unmarked)
3. Cc1nnc([C@H]2CCCN2C(=O)N[C@H]2CCCOc3ccccc32)n1Cc1ccc(Cl)cc1

["< 50 nM", "50 to 500 nM", "50 to 500 nM"]

----------
These records show IC50 for UniProtKB P32246.

> print(dat)
                                   compound  measurementtype   measurement
1  Cc1ncc(Cc2ccc(Cl)cc2)c([C@H]2CCCN2C(=O)Nc2c(C)cc(Cl)cc2C)n1             IC50  50 to 500 nM

Hi there! I need IC50 for each item below, if you can.
1. Cc1nnc([C@H]2CCCN2C(=O)Nc2ccc(Cl)cc2F)n1Cc1ccc(Cl)nc1
2. Cc1nnc([C@H]2CCCN2C(=O)Nc2ccc(Cl)cc2Cl)n1Cc1ccc(Cl)cc1
3. CC(=O)N1CCC(NC(=O)N2CCC[C@@H]2c2nnc(C)n2Cc2ccc(Cl)cc2)CC1
4. Cc1nnc([C@H]2C[C@H](O)CN2C(=O)Nc2ccc(C(F)(F)F)nc2Cl)n1Cc1ccc(Cl)cc1
5. COC1C[C@H](c2nnc(C)n2Cc2ccc(Cl)cc2)N(C(=O)N[C@H]2CCOc3cc(C(F)(F)F)ccc32)C1 (some centres unmarked)
6. Cc1noc(C)c1NC(=O)N1CCC[C@@H]1c1nnc(C)n1Cc1ccc(F)cc1

1. 500 to 5000 nM
2. 50 to 500 nM
3. 500 to 5000 nM
4. < 50 nM
5. 50 to 500 nM
6. 50 to 500 nM

List IC50 for every entry below, keeping the order given.
1. Cc1c(NC(=O)N2CCC[C@@H]2c2nnc(C)n2Cc2ccc(Cl)cc2)ccc(C#N)c1C(F)(F)F
2. Cn1cc(Cc2ccc(Cl)cc2)c([C@H]2CCCN2C(=O)Nc2ccc(C(F)(F)F)cc2)n1

1. < 50 nM
2. 50 to 500 nM

Please state IC50 for every compound in the list that follows.
1. Cc1nc(C(F)(F)F)nc(C)c1NC(=O)N1CCC[C@@H]1c1nnc(C)n1Cc1ccc(Cl)cc1
2. CC[C@H](N/C(=N/C#N)N1CCC[C@@H]1c1nnc(C)n1Cc1ccc(Cl)cc1)c1cc2ccccc2o1

1: < 50 nM; 2: < 50 nM
